Entries and their measured self-splicing fitness (ln) follow.
# assay.protocol: self-splicing fitness, log relative to wild type (ln ratio); higher = more splicing; Tetrahymena group I intron in knt gene, E. coli kanamycin selection, DiMSum; sequences stand for … in CUCUCU…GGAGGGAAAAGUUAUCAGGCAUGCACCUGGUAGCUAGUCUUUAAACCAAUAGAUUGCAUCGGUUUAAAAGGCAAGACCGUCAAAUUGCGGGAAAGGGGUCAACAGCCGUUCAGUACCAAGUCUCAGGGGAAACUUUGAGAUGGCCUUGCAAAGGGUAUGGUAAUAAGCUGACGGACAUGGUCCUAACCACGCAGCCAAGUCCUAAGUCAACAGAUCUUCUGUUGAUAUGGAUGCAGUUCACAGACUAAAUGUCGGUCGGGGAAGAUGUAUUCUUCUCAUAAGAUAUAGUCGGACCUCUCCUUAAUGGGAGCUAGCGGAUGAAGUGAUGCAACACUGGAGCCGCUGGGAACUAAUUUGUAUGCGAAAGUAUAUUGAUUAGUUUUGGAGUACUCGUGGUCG;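 further: selection with 25 µg/mL kanamycin versus none on LB agar overnight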
# details: 37 °C
measure: self-splicing fitness (ln)

In [3]: df
Out[3]:
                residues   value
 0  UCGGAGCAAUAUUACGCACU   -2.23
 1  CGAUAGCAAUAUUACGUUAU   -1.61
 2  CCUUAGCAAUAUUACGGGGU   -2.08
 3  CCUCAGCAAUAUUACGCCAU    -1.8
 4  GAUAAGCAAUAUUACGAUUU    1.36
 5  GGCGAGCAAUAUUACGUUCA  0.0965
 6  GGACAGCAAUAUUACGGUCU   -1.18
 7  GUUGAGCAAUAUUACGAAUA   -1.44
 8  UAAUAGCAAUAUUACGCUAG  -0.773
 9  UUGGAGCAAUAUUACGUAUU    -1.7
10  CCUGAGCAAUAUUACGGUCA   -2.46
11  GUCUAGCAAUAUUACGCUGG    -2.2
12  UGGUAGCAAUAUUACGGCGA    0.49
13  GACAAGCAAUAUUACGGGCG  -0.455
14  AUUAAGCAAUAUUACGCGUC   -2.19
15  CAUCAGCAAUAUUACGUUGA   -3.46
16  CUUGAGCAAUAUUACGCGAG   -2.82
17  UCACAGCAAUAUUACGGAUU   -2.38
18  UAAUAGCAAUAUUACGCUUC   -1.72
19  AGGUAGCAAUAUUACGCAUG   -1.22
20  CGGUAGCAAUAUUACGGCAG   0.767
21  CGCUAGCAAUAUUACGUCGA   -1.78
22  UUGCAGCAAUAUUACGCUGU   -1.23
23  AGUGAGCAAUAUUACGGCUA   -1.38
24  CGACAGCAAUAUUACGUUUA  -0.394
25  CGAUAGCAAUAUUACGAAGA   -2.21
26  CCUUAGCAAUAUUACGAUAG   -2.37
27  GUAUAGCAAUAUUACGGUCA  -0.663
28  CAAAAGCAAUAUUACGUGAC   -2.47
29  CUAUAGCAAUAUUACGAUAA  -0.839
30  UAACAGCAAUAUUACGUGCU   -2.28
31  GGAGAGCAAUAUUACGCGUA   -1.42
32  GCGUAGCAAUAUUACGGGUG   -1.46
33  GAGCAGCAAUAUUACGGAUU   0.538
